Dear all, this message contains Ki results, target or system STAT3 (Homo sapiens, UniProt P40763).
Number plus unit, in that order.

* CN1CC[C@H]2CC[C@@H](C(=O)N[C@@H](CCC(N)=O)C(=O)NCc3ccccc3)N2C(=O)[C@@H](NC(=O)c2cc3cc(C(F)(F)P(=O)(O)O)ccc3[nH]2)C1 | 0.011 µM
* NC(=O)CC[C@H](NC(=O)[C@@H]1CC[C@@H]2CCN(C(=O)CCCCCC#Cc3cccc4c3CN(C3CCC(=O)NC3=O)C4=O)C[C@H](NC(=O)c3cc4cc(C(F)(F)P(=O)(O)O)ccc4[nH]3)C(=O)N21)C(=O)NC(c1ccccc1)c1ccccc1 (some centres unmarked) | 0.011 µM
* CC(=O)N1CC[C@H]2CC[C@@H](C(=O)N[C@@H](CCC(N)=O)C(=O)NC(c3ccccc3)c3ccccc3)N2C(=O)[C@@H](NC(=O)c2cc3cc(C(F)(F)P(=O)(O)O)ccc3[nH]2)C1 | 0.009 µM
* NC(=O)CC[C@H](NC(=O)[C@@H]1CCC2CCCC[C@H](NC(=O)c3cc4cc(OP(=O)(O)O)ccc4[nH]3)C(=O)N21)C(=O)NCc1ccccc1 (some centres unmarked) | 0.039 µM

Now let's try a different one.
query: Tell me reported Ki for NC(=O)CC[C@H](NC(=O)[C@@H]1CCC2CCCC[C@H](NC(=O)c3cc4cc(C(F)(F)P(=O)(O)O)ccc4[nH]3)C(=O)N21)C(=O)NCc1ccccc1 (some centres unmarked) , tested with STAT3 (Homo sapiens, UniProt P40763).
Sequence (P40763 127-688): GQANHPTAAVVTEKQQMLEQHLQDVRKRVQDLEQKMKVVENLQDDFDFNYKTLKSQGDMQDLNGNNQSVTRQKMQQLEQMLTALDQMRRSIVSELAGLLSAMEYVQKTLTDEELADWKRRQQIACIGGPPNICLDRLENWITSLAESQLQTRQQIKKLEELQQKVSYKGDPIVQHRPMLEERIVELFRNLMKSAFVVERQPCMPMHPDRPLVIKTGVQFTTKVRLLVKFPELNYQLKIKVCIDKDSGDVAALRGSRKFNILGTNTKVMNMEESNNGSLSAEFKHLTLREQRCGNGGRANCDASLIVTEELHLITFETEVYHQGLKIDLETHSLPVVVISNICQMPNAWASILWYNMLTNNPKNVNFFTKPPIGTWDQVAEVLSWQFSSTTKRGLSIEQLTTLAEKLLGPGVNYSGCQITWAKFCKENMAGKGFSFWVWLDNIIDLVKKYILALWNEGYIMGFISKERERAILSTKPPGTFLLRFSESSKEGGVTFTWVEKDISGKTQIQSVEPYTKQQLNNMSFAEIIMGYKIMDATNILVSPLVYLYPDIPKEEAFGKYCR
result: 0.007 µM

* * *

The reader will find reported Kd values listed item by item below.
- system under test: UniProt:Q14765
- Sequence (Q14765 133-705): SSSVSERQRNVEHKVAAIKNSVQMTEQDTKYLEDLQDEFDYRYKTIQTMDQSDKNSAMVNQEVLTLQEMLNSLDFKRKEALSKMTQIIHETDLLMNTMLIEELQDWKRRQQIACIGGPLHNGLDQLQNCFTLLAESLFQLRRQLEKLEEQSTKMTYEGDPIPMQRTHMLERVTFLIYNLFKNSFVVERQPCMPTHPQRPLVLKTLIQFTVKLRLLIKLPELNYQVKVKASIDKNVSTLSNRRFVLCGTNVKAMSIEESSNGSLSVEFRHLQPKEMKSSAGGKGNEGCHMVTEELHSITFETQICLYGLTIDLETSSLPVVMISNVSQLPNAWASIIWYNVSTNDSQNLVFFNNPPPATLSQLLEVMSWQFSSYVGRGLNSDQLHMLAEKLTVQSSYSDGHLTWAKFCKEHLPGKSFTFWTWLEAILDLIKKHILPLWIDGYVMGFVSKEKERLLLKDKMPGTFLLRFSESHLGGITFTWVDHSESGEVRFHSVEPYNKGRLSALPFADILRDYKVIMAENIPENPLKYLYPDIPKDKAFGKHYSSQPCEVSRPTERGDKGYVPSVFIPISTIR

- NC(=O)CC[C@H](NC(=O)[C@@H]1CC[C@@H]2CCN(C(=O)CCCCCC#Cc3cccc4c3CN(C3CCC(=O)NC3=O)C4=O)C[C@H](NC(=O)c3cc4cc(C(F)(F)P(=O)(O)O)ccc4[nH]3)C(=O)N21)C(=O)NC(c1ccccc1)c1ccccc1 (some centres unmarked) [SD-36]: 1 to 2 µM

Now consider the entry below.
query: Quick one: Kd of CC(=O)N1CC[C@H]2CC[C@@H](C(=O)N[C@@H](CCC(N)=O)C(=O)NC(c3ccccc3)c3ccccc3)N2C(=O)[C@@H](NC(=O)c2cc3cc(C(F)(F)P(=O)(O)O)ccc3[nH]2)C1 [SI-109] ?
result: 1 to 2 µM

FYI, the data here is from paper PMC6880868.
